Assay: activity coefficient (dimensionless); of the first substance listed, at infinite dilution; xn = mol fraction of the nth substance listed
Conditions: 403.15 K; 101 kPa; Liquid; Chromatography; x1 = 0
Criterion: activity coefficient strictly less than 0.4. Met: class 1. Not met: class 0.

C=CCCCCCCCCCC [1-dodecene] + CCCCCCCCCCCCCCCCCCC(CCCCCCCCCCCCCCCCCC)CCCCC(CCCCCCCCCCCCCCCCCC)CCCCCCCCCCCCCCCCCC ... class 0
C=CCCCCCCCCCCCC [1-tetradecene] + CCCCCCCCCCCCCCCCCCC(CCCCCCCCCCCCCCCCCC)CCCCC(CCCCCCCCCCCCCCCCCC)CCCCCCCCCCCCCCCCCC ... class 0
C1CC[C@H]2CCCC[C@H]2C1 [cis-decahydronaphthalene] + CCCCCCCCCCCCCCCCCCC(CCCCCCCCCCCCCCCCCC)CCCCC(CCCCCCCCCCCCCCCCCC)CCCCCCCCCCCCCCCCCC ... class 1

Please check: activity coefficient for C1=CCCC=C1 [1,3-cyclohexadiene] + CCCCCCCCCCCCCCCCCCC(CCCCCCCCCCCCCCCCCC)CCCCC(CCCCCCCCCCCCCCCCCC)CCCCCCCCCCCCCCCCCC , strictly under 0.4 or not?
class 1

Please check: activity coefficient for C#CCCCC [1-hexyne] + CCCCCCCCCCCCCCCCCCC(CCCCCCCCCCCCCCCCCC)CCCCC(CCCCCCCCCCCCCCCCCC)CCCCCCCCCCCCCCCCCC , strictly under 0.4 or not?
class 1

Please check: activity coefficient for CCCCCCCCCCC [undecane] + CCCCCCCCCCCCCCCCCCC(CCCCCCCCCCCCCCCCCC)CCCCC(CCCCCCCCCCCCCCCCCC)CCCCCCCCCCCCCCCCCC , strictly under 0.4 or not?
class 0

Please check: activity coefficient for C1=CCC=CC1 [1,4-cyclohexadiene] + CCCCCCCCCCCCCCCCCCC(CCCCCCCCCCCCCCCCCC)CCCCC(CCCCCCCCCCCCCCCCCC)CCCCCCCCCCCCCCCCCC , strictly under 0.4 or not?
class 1

Please check: activity coefficient for C1CCCCCCCCC1 [cyclodecane] + CCCCCCCCCCCCCCCCCCC(CCCCCCCCCCCCCCCCCC)CCCCC(CCCCCCCCCCCCCCCCCC)CCCCCCCCCCCCCCCCCC , strictly under 0.4 or not?
class 1

Please check: activity coefficient for C=CCCCCCCCCC [1-undecene] + CCCCCCCCCCCCCCCCCCC(CCCCCCCCCCCCCCCCCC)CCCCC(CCCCCCCCCCCCCCCCCC)CCCCCCCCCCCCCCCCCC , strictly under 0.4 or not?
class 0

Please check: activity coefficient for CCCC#CCCC [4-octyne] + CCCCCCCCCCCCCCCCCCC(CCCCCCCCCCCCCCCCCC)CCCCC(CCCCCCCCCCCCCCCCCC)CCCCCCCCCCCCCCCCCC , strictly under 0.4 or not?
class 0

Please check: activity coefficient for C1CC[C@@H]2CCC[C@H]2C1 [trans-bicyclo[4.3.0]nonane] + CCCCCCCCCCCCCCCCCCC(CCCCCCCCCCCCCCCCCC)CCCCC(CCCCCCCCCCCCCCCCCC)CCCCCCCCCCCCCCCCCC , strictly under 0.4 or not?
class 1

Please check: activity coefficient for C=CCCCC [hex-1-ene] + CCCCCCCCCCCCCCCCCCC(CCCCCCCCCCCCCCCCCC)CCCCC(CCCCCCCCCCCCCCCCCC)CCCCCCCCCCCCCCCCCC , strictly under 0.4 or not?
class 1

Please check: activity coefficient for CCCCC [pentane] + CCCCCCCCCCCCCCCCCCC(CCCCCCCCCCCCCCCCCC)CCCCC(CCCCCCCCCCCCCCCCCC)CCCCCCCCCCCCCCCCCC , strictly under 0.4 or not?
class 1
